- measured.target: rNav1.4-L435W/L437C/A438W mutant channels (Rattus norvegicus, UniProt P15390, A438W/L435W/L437C)
- Construct: expressed in transfected cells; host or cells: HEK293t, transient, calcium phosphate; pcDNA1/Amp vector
- Sequence (P15390 whole entry L435W/L437C/A438W): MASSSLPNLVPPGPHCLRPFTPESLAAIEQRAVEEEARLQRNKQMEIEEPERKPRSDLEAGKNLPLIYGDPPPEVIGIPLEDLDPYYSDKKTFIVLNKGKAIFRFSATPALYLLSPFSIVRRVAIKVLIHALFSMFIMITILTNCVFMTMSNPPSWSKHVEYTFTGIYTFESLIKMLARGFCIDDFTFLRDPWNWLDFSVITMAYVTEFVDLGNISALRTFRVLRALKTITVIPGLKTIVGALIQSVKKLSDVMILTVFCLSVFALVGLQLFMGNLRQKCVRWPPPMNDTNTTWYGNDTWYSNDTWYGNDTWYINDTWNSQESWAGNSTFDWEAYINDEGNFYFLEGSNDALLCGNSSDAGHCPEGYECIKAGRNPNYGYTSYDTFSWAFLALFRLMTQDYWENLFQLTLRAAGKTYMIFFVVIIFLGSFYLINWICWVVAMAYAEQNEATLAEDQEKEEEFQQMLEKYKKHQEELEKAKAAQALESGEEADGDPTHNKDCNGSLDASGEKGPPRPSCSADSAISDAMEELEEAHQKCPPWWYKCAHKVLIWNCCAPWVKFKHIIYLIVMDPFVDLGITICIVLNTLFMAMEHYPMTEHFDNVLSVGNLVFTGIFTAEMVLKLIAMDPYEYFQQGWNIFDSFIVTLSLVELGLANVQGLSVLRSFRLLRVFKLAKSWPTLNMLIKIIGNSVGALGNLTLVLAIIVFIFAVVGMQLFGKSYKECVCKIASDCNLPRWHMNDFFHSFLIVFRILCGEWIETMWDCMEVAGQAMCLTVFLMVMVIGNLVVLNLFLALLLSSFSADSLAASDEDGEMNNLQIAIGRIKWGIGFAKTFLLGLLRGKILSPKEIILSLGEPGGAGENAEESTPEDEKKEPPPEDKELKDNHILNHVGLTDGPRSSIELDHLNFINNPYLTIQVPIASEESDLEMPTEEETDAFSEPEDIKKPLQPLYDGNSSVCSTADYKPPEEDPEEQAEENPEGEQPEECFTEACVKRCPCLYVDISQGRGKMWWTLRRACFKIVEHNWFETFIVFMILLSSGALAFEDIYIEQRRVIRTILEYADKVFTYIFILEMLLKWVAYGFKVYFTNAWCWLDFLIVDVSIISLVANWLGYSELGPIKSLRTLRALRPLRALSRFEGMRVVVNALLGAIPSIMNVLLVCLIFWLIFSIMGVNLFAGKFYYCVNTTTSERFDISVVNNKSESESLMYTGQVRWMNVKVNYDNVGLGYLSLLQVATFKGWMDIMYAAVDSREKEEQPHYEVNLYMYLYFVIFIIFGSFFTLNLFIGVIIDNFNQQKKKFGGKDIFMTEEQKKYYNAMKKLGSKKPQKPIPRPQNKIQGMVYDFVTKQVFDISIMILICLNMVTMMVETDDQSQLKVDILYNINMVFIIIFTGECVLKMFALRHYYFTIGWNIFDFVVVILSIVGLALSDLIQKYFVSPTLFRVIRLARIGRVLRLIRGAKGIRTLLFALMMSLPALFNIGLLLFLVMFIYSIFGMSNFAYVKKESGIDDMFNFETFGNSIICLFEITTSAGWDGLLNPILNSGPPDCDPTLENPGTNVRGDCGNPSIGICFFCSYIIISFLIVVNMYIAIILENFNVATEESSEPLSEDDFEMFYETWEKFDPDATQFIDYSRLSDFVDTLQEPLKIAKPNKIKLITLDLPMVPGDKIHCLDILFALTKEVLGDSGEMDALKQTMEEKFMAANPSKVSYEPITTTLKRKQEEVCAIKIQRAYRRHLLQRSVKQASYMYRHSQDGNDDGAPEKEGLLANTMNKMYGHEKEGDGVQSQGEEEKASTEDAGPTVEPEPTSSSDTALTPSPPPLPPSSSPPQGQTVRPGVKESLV
- Sequence (Q00954 19-218 partner): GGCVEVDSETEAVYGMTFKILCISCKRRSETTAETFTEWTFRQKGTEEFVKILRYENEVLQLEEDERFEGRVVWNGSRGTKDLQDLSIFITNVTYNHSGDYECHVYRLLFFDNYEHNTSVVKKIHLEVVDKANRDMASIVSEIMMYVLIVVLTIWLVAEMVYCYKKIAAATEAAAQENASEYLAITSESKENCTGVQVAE
- method.summary: Whole-cell patch clamp of inactivation-deficient rNav1.4-L435W/L437C/A438W mutant channels in HEK293t cells
- Assay type: cell-based
- details: conditioning pulse −50 mV, 10 s; read-out: IC50 with a conditioning pulse at −50 mV for 10 s (estimated block at the peak current)
endpoint.name: pIC50
Please express pIC50 as -log10 of the molar concentration.

Bench note: what pIC50 did O=C(NCC1CCCCN1)c1cc(OCC(F)(F)F)ccc1OCC(F)(F)F (stereo not shown) [flecainide] show?
5.39

----------
- measured.target: rNav1.4-L435W/L437C/A438W mutant channels (Rattus norvegicus, UniProt P15390, A438W/L435W/L437C)
- Construct: pcDNA1/Amp vector
- method.summary: Whole-cell patch clamp of inactivation-deficient rNav1.4-L435W/L437C/A438W mutant channels in HEK293t cells
- details: from off-rate/on-rate; read-out: calculated dissociation constant (open channel)
endpoint.name: Kd (nM)
Number in nM, nothing else.

Bench note: what Kd did O=C(NCC1CCCCN1)c1cc(OCC(F)(F)F)ccc1OCC(F)(F)F (stereo not shown) [flecainide] show?
810
